molecular target: Carbonic anhydrase 7 (Homo sapiens) (UniProt P43166); test: Activation of […] human carbonic anhydrase-7 incubated for 15 mins prior to testing by stopped-flow CO2 hydrase assay
Sequence (P43166 whole entry): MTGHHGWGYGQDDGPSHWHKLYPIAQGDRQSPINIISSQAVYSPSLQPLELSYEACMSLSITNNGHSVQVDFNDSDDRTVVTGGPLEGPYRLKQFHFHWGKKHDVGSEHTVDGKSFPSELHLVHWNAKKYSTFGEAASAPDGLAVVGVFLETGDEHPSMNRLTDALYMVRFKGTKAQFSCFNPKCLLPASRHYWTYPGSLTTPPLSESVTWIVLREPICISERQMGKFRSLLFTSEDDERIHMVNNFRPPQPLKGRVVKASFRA
Assay Endpoint: KA (µM)

{"Smi": "COC(=O)[C@H](Cc1nc[nH]c1Cl)NC(=O)OC(C)(C)C", "Assayed System": "Carbonic anhydrase 7 (Homo sapiens) (UniProt P43166)", "KA [µM]": 47.6}
{"Smi": "COC(=O)[C@H](Cc1nc[nH]c1I)NC(=O)CCN", "Assayed System": "Carbonic anhydrase 7 (Homo sapiens) (UniProt P43166)", "KA [µM]": 1.06}
{"Smi": "CC(C)(C)OC(=O)NCCc1nc[nH]c1Br", "Assayed System": "Carbonic anhydrase 7 (Homo sapiens) (UniProt P43166)", "KA [µM]": 10.4}
{"Smi": "COC(=O)[C@H](Cc1nc(Cl)[nH]c1Cl)NC(=O)CCN", "Assayed System": "Carbonic anhydrase 7 (Homo sapiens) (UniProt P43166)", "KA [µM]": 0.01}
{"Smi": "NCCc1nc[nH]c1Cl", "Assayed System": "Carbonic anhydrase 7 (Homo sapiens) (UniProt P43166)", "KA [µM]": 15.3}
{"Smi": "COC(=O)[C@H](Cc1nc(I)[nH]c1I)NC(=O)CCNC(=O)OC(C)(C)C", "Assayed System": "Carbonic anhydrase 7 (Homo sapiens) (UniProt P43166)", "KA [µM]": 0.74}

A = COC(=O)[C@@H](N)Cc1nc[nH]c1Cl
B = COC(=O)[C@@H](N)Cc1nc(Br)[nH]c1Br
C = COC(=O)[C@H](Cc1nc(Cl)[nH]c1Cl)NC(=O)CCNC(=O)OC(C)(C)C
D = COC(=O)[C@H](Cc1nc(Br)[nH]c1Br)NC(=O)CCN
E = COC(=O)[C@H](Cc1nc[nH]c1Br)NC(=O)CCNC(=O)OC(C)(C)C
*Q* List by increasing KA. Answer by listing the labels in the requested order.
*A* D, C, E, B, A

* * *

target: Carbonic anhydrase 12 (Homo sapiens) (UniProt O43570); assay: Activation of transmembrane human carbonic anhydrase-12 incubated for 15 mins prior to testing by stopped-flow CO2 hydrase assay
Sequence (O43570 whole entry): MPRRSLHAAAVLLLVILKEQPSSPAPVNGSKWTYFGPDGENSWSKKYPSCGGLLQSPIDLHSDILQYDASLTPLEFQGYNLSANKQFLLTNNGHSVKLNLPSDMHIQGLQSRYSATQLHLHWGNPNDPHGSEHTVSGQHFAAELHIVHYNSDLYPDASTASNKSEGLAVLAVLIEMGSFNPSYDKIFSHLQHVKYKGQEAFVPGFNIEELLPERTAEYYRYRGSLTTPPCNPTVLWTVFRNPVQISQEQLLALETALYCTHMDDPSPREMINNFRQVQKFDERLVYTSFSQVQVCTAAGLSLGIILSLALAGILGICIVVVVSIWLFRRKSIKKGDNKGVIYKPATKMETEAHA
Assay Endpoint: KA (µM)

Completed entries (count: 6):
{"Smi": "COC(=O)[C@@H](N)Cc1nc[nH]c1Cl", "KA, µM": 0.078}
{"Smi": "NCCc1nc[nH]c1I", "KA, µM": 0.9}
{"Smi": "COC(=O)[C@H](Cc1nc[nH]c1Br)NC(=O)CCN", "KA, µM": 30.7}
{"Smi": "COC(=O)[C@H](Cc1nc[nH]c1Cl)NC(=O)OC(C)(C)C", "KA, µM": 42.5}
{"Smi": "COC(=O)[C@H](Cc1nc(I)[nH]c1I)NC(=O)OC(C)(C)C", "KA, µM": 64.7}
{"Smi": "CC(C)(C)OC(=O)NCCc1nc(Br)[nH]c1Br", "KA, µM": 37.4}

I = COC(=O)[C@H](Cc1nc(I)[nH]c1I)NC(=O)CCNC(=O)OC(C)(C)C
II = COC(=O)[C@H](Cc1nc[nH]c1Cl)NC(=O)CCNC(=O)OC(C)(C)C
*Q* // max by KA over [ I , II ] // return label of chosen record
*A* I
